molecular target: medaka T1r2a/T1r3LBD (Oryzias latipes, UniProt A0A173M094+A0A173M0G2); assay: Differential scanning fluorimetry (DSF) thermal shift ligand-binding assay; design: species or system O. latipes; details: from ΔTm at 10 mM via Eq 1, T0 326.1 K, ΔH0 72.1 kcal mol-1; read-out: Kd-app estimated at a single ligand concentration
Sequence (A0A173M094 entry or part of it): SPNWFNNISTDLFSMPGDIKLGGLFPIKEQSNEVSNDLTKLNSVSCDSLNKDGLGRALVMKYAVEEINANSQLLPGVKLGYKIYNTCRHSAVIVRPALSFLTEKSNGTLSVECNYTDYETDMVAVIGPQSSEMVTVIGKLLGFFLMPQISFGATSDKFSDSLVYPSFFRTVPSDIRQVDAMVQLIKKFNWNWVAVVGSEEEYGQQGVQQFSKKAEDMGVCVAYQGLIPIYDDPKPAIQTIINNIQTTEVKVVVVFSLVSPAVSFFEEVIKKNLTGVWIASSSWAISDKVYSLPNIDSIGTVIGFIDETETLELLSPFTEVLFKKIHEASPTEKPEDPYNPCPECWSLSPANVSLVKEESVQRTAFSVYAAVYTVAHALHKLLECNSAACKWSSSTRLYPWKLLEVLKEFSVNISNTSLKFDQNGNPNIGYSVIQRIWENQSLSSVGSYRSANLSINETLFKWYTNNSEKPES
Sequence (A0A173M0G2 entry or part of it): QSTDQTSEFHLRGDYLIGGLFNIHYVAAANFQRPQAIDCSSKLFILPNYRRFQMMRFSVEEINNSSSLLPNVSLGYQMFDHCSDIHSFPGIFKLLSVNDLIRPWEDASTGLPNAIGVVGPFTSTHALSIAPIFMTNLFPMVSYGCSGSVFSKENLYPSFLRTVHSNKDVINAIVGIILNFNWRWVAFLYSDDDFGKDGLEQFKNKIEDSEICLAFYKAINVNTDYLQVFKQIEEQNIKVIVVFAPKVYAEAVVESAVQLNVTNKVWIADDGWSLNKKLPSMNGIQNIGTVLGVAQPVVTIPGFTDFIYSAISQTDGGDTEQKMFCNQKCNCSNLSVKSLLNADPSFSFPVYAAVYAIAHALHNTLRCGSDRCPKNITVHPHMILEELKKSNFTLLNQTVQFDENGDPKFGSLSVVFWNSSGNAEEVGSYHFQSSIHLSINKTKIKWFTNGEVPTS
Record form. Attribute: potency estimated from few doses. Fill in for each entry.
Give a bare numeral; the unit µM is implied.

Find the measured potency estimated from few doses: item `CSCC[C@H](N)C(=O)O` , target or system medaka T1r2a/T1r3LBD (Oryzias latipes, UniProt A0A173M094+A0A173M0G2).
562

Ok, now `NC(=O)CC[C@H](N)C(=O)O`
119

Ok, now `N[C@@H](CO)C(=O)O`
956

Ok, now `NC(=O)C[C@H](N)C(=O)O`
3000

Ok, now N[C@@H](CC(=O)O)C(=O)O [L-Asp, L-aspartate]
34900

Ok, now `N[C@@H](Cc1ccccc1)C(=O)O`
4370

Ok, now N[C@@H](CCC(=O)O)C(=O)O [L-Glu, glutamate]
1050

Value source: paper PMC6777825
